The measurements presented in this section are drawn from patent US20220177587A1.

molecular target: CD28, endogenously expressed on Jurkat/IL2 reporter cells (human) (UniProt P10747); assay: flow cytometry on Jurkat/IL2 reporter cells (endogenous CD28), 33.3 nM Fc fusion, PE anti-human Fc
measureName: MFI at 33.3 nM (MFI)
Give bare numbers, in MFI.

variant CD80 IgV-Fc Q27L/E35D/M47V/I61V/L85M (Fc fusion) VIHVTKEVKEVATLSCGHNVSVEELALTRIYWQKDKKMVLTMMSGDVNIWPEYKNRTIFDVTNNLSIVILALRPSDEGTYECVVMKYEKDAFKREHLAEVTLSVKAD; 230
variant CD80 IgV-Fc E35D/M47L/A71G/L85M (Fc fusion) VIHVTKEVKEVATLSCGHNVSVEELAQTRIYWQKDKKMVLTMMSGDLNIWPEYKNRTIFDITNNLSIVILGLRPSDEGTYECVVMKYEKDAFKREHLAEVTLSVKAD; 199
variant CD80 IgV-Fc Q27H/E35D/M47I (Fc fusion) VIHVTKEVKEVATLSCGHNVSVEELAHTRIYWQKDKKMVLTMMSGDINIWPEYKNRTIFDITNNLSIVILALRPSDEGTYECVVLKYEKDAFKREHLAEVTLSVKAD; 756

Request: Which measured MFI at 33.3 nM value corresponds to variant CD80 IgV-Fc H18Y/E35D/M47L/A71G/A91S (Fc fusion) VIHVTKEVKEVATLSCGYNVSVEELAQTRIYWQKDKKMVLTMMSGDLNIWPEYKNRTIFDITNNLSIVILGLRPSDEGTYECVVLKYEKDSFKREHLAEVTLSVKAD ?
Result: 528
